system: A375 (melanoma); assay: In vitro cytotoxic activity assay (MTT), A375; format: cell-based; settings: Homo sapiens, A-375; A375 (melanoma) cells, exposed for 96 hours; read-out: IC50, concentration eliciting a 50% inhibition of cell proliferation
measured_metric: IC50

INPUT: So what IC50 did `Clc1cccc(-n2c3ccncc3c3nc4ccncn4c32)c1` get with A375 (melanoma)?
OUTPUT: 3.7 µM

###

tested on: HCT116 (colon); test: In vitro cytotoxic activity assay (MTT), HCT116; type: cell-based; details: Homo sapiens, HCT-116; HCT116 (colon) cells, exposed for 96 hours; read-out: IC50, concentration eliciting a 50% inhibition of cell proliferation
measured_metric: IC50 (µM)
One number for each entry, in µM.

INPUT: Name the recorded IC50 for `Clc1cccc(-n2c3ccncc3c3nc4ccncn4c32)c1` .
OUTPUT: 2.1
